Molecular target: T1, Human CXCR2 (human, UniProt P25025 1-360)
T1 sequence: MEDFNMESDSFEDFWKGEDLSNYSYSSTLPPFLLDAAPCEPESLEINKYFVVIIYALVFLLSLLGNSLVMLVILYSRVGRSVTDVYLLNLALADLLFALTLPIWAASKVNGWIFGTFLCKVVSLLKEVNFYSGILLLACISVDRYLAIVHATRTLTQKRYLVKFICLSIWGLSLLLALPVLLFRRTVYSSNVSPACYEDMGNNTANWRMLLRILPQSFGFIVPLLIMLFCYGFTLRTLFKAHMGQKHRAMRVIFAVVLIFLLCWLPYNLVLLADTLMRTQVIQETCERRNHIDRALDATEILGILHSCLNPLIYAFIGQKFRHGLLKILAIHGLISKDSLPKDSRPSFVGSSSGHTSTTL
Assay: cell-based or functional assay
quantity name: Human WBSC IC50 (vs rhGROα) (nM)
Provide the reading as a plain figure in nM.

# return recorded Human WBSC IC50 (vs rhGROα) for entry CXCR20030 (other, not shown: small tags and cut ends) EVQLVESGGGLVQAGGSLRLSCAASGRTFSDYAMGWFRQAPGKEREFVAAITWNGGRVFYTASVKGRFTISRDNAKNTMYLQMNSLKPEDTAVYYCAADKDRRTDYLGHPVAYWGQGTQVTVSSGGGGSGGGGSGGGGSGGGGSGGGGSGGGGSGGGGSEVQLVESGGGLVQAGGSLTLSCAVSGSTFRINTMGWYRRAPGKQRELVAARDRGGYINYVDSVKGRFTVSRDNAKPTMYLQMNSLKPEDTAVYYCHAGTQDRTGRNFDRWGQGTQVTVSS 0.215

# return recorded Human WBSC IC50 (vs rhGROα) for entry CXCR20033 (bispecific antibody, not shown: small tags and cut ends) EVQLVESGGGLVQPGGSLRLSCVASGRIFSSNAMGWFRQAPGKEREFVAAITWRSGGSAYYADSAKGRFTISRDNAKNTVYLQMNSLKPEDTAVYYCAAGGSSWLSFPPDYWGQGTQVTVSSGGGGSGGGGSGGGGSGGGGSGGGGSGGGGSGGGGSEVQLVESGGELVQPGGSLRLSCAASGSILTINAMGWYRQAPGKQRELVVRRTRGGSTTYQDSVKGRFTISADIAKKTMYLQMNSLKPEDTAVYYCMLDDRGGVYWGQGTQVTVSS 0.345
